Values were extracted from the supplement of paper PMC11451515.

Measured cell viability by item
test system: SEM cells; test: cell viability relative to DMSO control; higher = less cytotoxic; settings: HPLM + 10% dialyzed FBS; 48 h; 0.569 µM
measure-name: cell viability (%)

* CN(C)c1nc(N(C)C)nc(N(C)C)n1 | 106
* CCOC(=O)c1ccc(C#Cc2ccc3c(c2)C(C)(C)CCS3)nc1 | 114
* c1ccc(-c2nn3c(c2-c2ccnc4cc(OCCN5CCOCC5)ccc24)CCC3)nc1 | 115
* N/C(=N\C(=O)c1nc(Cl)c(N)nc1N)NCc1ccccc1 | 113

---

Measured cell viability by item
tested on: P12-Ichikawa; assay: cell viability relative to DMSO control; higher = less cytotoxic; details: RPMI 5 mM glucose + 10% dialyzed FBS; 48 h; 15.4 µM
measure-name: cell viability (%)

• COc1ccc([C@@H]2CNC(=O)C2)cc1OC1CCCC1 = 111
• CC(Oc1ccc(O)cc1)(P(=O)(O)O)P(=O)(O)O = 47.2
• CO[C@@H]1[C@H](N(C)C(=O)c2ccccc2)C[C@H]2O[C@]1(C)n1c3ccccc3c3c4c(c5c6ccccc6n2c5c31)C(=O)NC4 = 33.1
• CN(C)[C@H]\1[C@@H]2[C@@H](O)[C@@H]\3C(=C)C4=C(C(=CC=C4)O)C(=O)C3=C(\O)[C@@]2(O)C(=O)\C(=C1O)C(N)=O = 119
• CCOc1cc2c(c(F)c1OCC)C(=N)N(CC(=O)c1cc(N3CCOCC3)c(OC)c(C(C)(C)C)c1)C2 = 120
• CC(C)[C@@H](N(CCCN)C(=O)C1=CC=C(C)C=C1)C/2=C(\CC3=CC=CC=C3)C(=O)C4=C(O2)C=C(Cl)C=C4 = 19.8
• CCCn1c(=O)c2[nH]c(C34CC5CC3C[C@@H](C5)C4)nc2n(CCC)c1=O = 93.2

---

tested on: P12-Ichikawa; experiment: cell viability relative to DMSO control; higher = less cytotoxic; conditions: HPLM + 10% dialyzed FBS; 48 h; 0.0632 µM
measure-name: cell viability (%)

* C=C1C[C@@]2(O)O[C@@]3(C[C@H]2C(C)C)[C@@H](C)CC[C@@H]13 | 117
* CC1(C)O[C@H]2CC(=O)OC[C@]23[C@H]2CC[C@@]4(C)[C@H](c5ccoc5)OC(=O)[C@H]5O[C@]54[C@]2(C)C(=O)C[C@@H]13 | 110
* CC(C)[C@H](CO)Nc1nc(Nc2ccc(C(=O)O)c(Cl)c2)c2ncn(C(C)C)c2n1 | 119
* COc1ccc2cccc(CCNC(C)=O)c2c1 | 96

---

test system: SEM cells; assay: cell viability relative to DMSO control; higher = less cytotoxic; conditions: RPMI 5 mM glucose + 10% dialyzed FBS; 48 h; 0.0211 µM
Measured cell viability by item
measure-name: cell viability

- C[C@H]1CCC/C=C/C2C[C@H](O)C[C@H]2[C@H](O)/C=C/C(=O)O1 (stereo partly drawn): 5.2%
- Cc1cc(SCc2sc(-c3ccc(C(F)(F)F)c(F)c3)nc2C)ccc1OCC(=O)O: 48.4%
- COc1cc(/C=C/C(=O)CC(=O)/C=C/c2ccc(O)c(OC)c2)ccc1O: 108%
- OC1=C(C=CC=C1)C2=CC=C(C=C2)C3=CSC4=C3C(=C(/C#N)C(=O)N4)/O: 133%
- CCC1=C(C)CN(C(=O)NCCc2ccc(S(=O)(=O)NC(=O)N[C@H]3CC[C@H](C)CC3)cc2)C1=O: 86.2%
- CN(C)CCC=C1C2=C(C=CC=C2)\C=C/C3=C1C=CC=C3: 130%
- COc1cc2c(NC3CCN(C(C)C)CC3)nc(C3CCCCC3)nc2cc1OCCCN1CCCC1: 119%
- COC(=O)N[C@H](C(=O)N[C@@H](Cc1ccccc1)[C@@H](O)CN(Cc1ccc(-c2ccccn2)cc1)NC(=O)[C@@H](NC(=O)OC)C(C)(C)C)C(C)(C)C: 123%
- O=C1[O][Pt]2([NH]C3CCCCC3[NH]2)[O]C1=O (stereo not drawn): 114%
- c1cc(OCCN2CCCCC2)cc(-c2n[nH]c3ccc(-c4nc[nH]n4)cc23)c1: 119%
- CC(C)[C@@H](N(CCCN)C(=O)C1=CC=C(C)C=C1)C/2=C(\CC3=CC=CC=C3)C(=O)C4=C(O2)C=C(Cl)C=C4: 25.6%
- COc1ccc(CCC(=O)Nc2nc3ccc(Cl)cc3s2)cc1OC: 113%
- CN(C)c1nc(N(C)C)nc(N(C)C)n1: 104%
- CC1=C(C)C2=C(S1)[N]3C(=NN=C3[C@H](CC(=O)OC(C)(C)C)/N=C2/C4=CC=C(Cl)C=C4)C: 78.7%
- O=C1c2cccc(O)c2C(=O)c2c(O)cc(CO)cc21: 91.7%
- CN1C(=O)COc2c(C(=O)NC3CN4CCC3CC4)cc(Cl)cc21 (stereo not drawn): 122%
- NC12CC3CC(CC(C3)C1)C2: 108%
- N=C(N)c1ccc(OCCCCCOc2ccc(C(=N)N)cc2)cc1: 138%
- c1ccc2c(Oc3nc(Nc4ccc(N5CCOCC5)cc4)c4ncn(C5CCCCC5)c4n3)cccc2c1: 130%
- COc1cc2ncnc(Nc3ccc(F)c(Cl)c3)c2cc1OCCCN1CCOCC1: 102%
- CCCCOc1ccc(C(=O)Nc2ccc(F)cc2F)cc1: 90.1%
- CC(C)c1ccc2oc3nc(N)c(C(=O)O)cc3c(=O)c2c1: 141%
- CC1OC(OC/2=C(/OC3=C(C(=CC(=C3)O)O)C2=O)C4=CC=C(O)C=C4)C(O)C(OC(C)=O)C1OC(C)=O (stereo not drawn): 102%
